Target: 72 kDa type IV collagenase (Homo sapiens)
Sequence (P08253 whole entry): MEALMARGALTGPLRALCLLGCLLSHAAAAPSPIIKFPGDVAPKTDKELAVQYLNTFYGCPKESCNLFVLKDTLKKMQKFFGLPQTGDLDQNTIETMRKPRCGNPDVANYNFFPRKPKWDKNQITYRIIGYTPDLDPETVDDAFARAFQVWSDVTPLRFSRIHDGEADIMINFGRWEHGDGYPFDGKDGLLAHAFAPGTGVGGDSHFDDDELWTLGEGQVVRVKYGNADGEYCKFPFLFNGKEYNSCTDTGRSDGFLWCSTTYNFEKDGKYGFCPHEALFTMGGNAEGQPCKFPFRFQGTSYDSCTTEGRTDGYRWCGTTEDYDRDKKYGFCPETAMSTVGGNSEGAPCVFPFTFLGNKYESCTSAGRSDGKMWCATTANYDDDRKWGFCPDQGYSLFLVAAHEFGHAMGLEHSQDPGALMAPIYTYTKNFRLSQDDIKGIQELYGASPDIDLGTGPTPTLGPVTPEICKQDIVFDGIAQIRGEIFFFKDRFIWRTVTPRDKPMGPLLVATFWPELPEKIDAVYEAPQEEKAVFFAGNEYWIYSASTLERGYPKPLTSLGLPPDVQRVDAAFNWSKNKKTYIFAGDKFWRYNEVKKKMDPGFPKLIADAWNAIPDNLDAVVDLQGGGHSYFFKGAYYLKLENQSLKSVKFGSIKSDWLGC
I'd appreciate it if you could supply IC50 values for the items below.
Numbers only, in µM.

{"structure": "CCn1ccnc1[C@]1(CNC(=O)c2cc3cc(Cl)ccc3o2)NC(=O)NC1=O", "value.units": "µM", "IC50": 3.5}
{"structure": "Cn1ccnc1[C@]1(CNC(=O)c2cc3cc(Cl)ccc3o2)NC(=O)NC1=O", "value.units": "µM", "IC50": 3.2}

Consider the compound shown here: Cc1cnc([C@]2(CNC(=O)c3cc4cc(Cl)ccc4o3)NC(=O)NC2=O)n1C What is its recorded IC50?
2.4

====

Record form. Attribute: IC50. Fill in for each entry.
Molecular target: Collagenase 3 (Homo sapiens, UniProt P45452)
Give bare numbers, in µM.

Example entries and their recorded answers appear below.
{"structure": "O=C1NC(=O)[C@](CNC(=O)c2cc3cc(C(F)(F)F)ccc3o2)(C2CC2)N1", "value.units": "µM", "IC50": 16}
{"structure": "CCn1ccnc1[C@]1(CNC(=O)c2cc3cc(C(F)(F)F)ccc3o2)NC(=O)NC1=O", "value.units": "µM", "IC50": 18}
{"structure": "CCn1ccnc1[C@]1(CNC(=O)c2cc3cc(Cl)ccc3o2)NC(=O)NC1=O", "value.units": "µM", "IC50": 2.3}

For the next question, use this molecule.
Item under review: Cc1cnc([C@]2(CNC(=O)c3cc4cc(C(F)(F)F)ccc4o3)NC(=O)NC2=O)n1C . Reported IC50?
23

Data provenance is ChEMBL document CHEMBL4425099.
